Biological target: Adenosine receptor A2a (Rattus norvegicus, UniProt P30543)
Sequence (P30543 whole entry): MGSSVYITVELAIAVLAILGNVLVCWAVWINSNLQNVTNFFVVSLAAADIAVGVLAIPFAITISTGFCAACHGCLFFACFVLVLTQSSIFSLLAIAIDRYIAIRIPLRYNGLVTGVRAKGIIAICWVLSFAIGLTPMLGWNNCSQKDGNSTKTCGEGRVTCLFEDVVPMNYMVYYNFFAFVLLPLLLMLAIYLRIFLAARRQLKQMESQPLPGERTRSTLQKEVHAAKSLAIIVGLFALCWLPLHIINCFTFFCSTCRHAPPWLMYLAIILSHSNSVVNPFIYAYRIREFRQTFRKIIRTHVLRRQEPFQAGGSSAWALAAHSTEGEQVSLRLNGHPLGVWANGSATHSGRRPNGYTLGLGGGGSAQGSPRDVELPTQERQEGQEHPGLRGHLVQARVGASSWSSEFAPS
Measurement Name: Ki

{"columns": ["Compound", "Measurement Name", "Readout Value"],
 "data": [
  ["CC(=O)NCCc1c2c3c(ccnc3c3ncsc13)-c1ccccc1N2 [KUANONIAMINE D]", "Ki", "13.7 µM"]
]}

###

Experiment: Displacement of [3H]diazepam from benzodiazepine binding site of GABAA receptor in rat brain cortical membrane
Type: cell membranes
pKi: −log10 of the molar value.
Measurement Name: pKi

{"columns": ["Smi", "Measurement Name", "Readout Value"],
 "data": [
  ["Cn1c(=O)c2c(ncn2C)n(C)c1=O", "pKi", 3.42]
]}
